From: PubChem BioAssay (NCI)

assay: NCI Yeast Anticancer Drug Screen. Data for the mlh1 rad18 strain (AID 175); details: S. cerevisiae mlh1 rad18 strain growth inhibition; at 50.0 µM
This is part of a sample that, as a whole, favours compounds with a hit. Of some 79,000 tested, about 15% had one in any assay. Activity calls are given as the source filed them. Rule as the data show it: active = growth inhibition above about 70%; inactive = the rest.
Allowed answers: yes = active, no = inactive

>  <compound>
COc1cc(/C=C/c2ccc(/C=C/c3cc(OC)c(OC)c(OC)c3)cc2)cc(OC)c1OC

>  <category label>
no

$$$$
>  <compound>
O=c1c(Cc2ccccc2)coc2ccccc12

>  <category label>
no

$$$$
>  <compound>
Cc1cccc([Si](c2ccccc2)(c2ccccc2)c2ccccc2)c1

>  <category label>
no

$$$$
>  <compound>
O=[N+]([O-])c1ccccc1S(=O)(=O)NC1c2ccccc2Oc2ccccc21

>  <category label>
no

$$$$

Input line: Lab log entry: Nc1ccc(C2=Nc3ccccc3SC(c3ccccc3O)C2)cc1 (stereo not given) — outcome as called in the assay?
Output line: no

Input line: Lab log entry: CC(C)OC(=O)N1C(=O)C2C3CCC(O3)C2C1=O (stereo not given) — outcome as called in the assay?
Output line: no

Input line: Lab log entry: CCC(=O)OCCCCC1CCCO1 (stereo not given) — outcome as called in the assay?
Output line: no

Input line: Lab log entry: O=c1cc([N+](=O)[O-])c2c([nH]1)CCC2 — outcome as called in the assay?
Output line: no

Input line: Lab log entry: Cn1c2ccccc2c2c(-c3ccccc3)cc3c(c21)C(=O)C=CC3=O — outcome as called in the assay?
Output line: no

Input line: Lab log entry: CCc1ccc(NC(=O)Nc2cccc(Cl)c2)cc1 — outcome as called in the assay?
Output line: no

Input line: Lab log entry: C=C(C(N)=O)c1ccc([N+](=O)[O-])o1 — outcome as called in the assay?
Output line: yes

---

assay: NCI Yeast Anticancer Drug Screen. Data for the mlh1 rad18 strain (AID 175); conditions: S. cerevisiae mlh1 rad18 strain growth inhibition; at 50.0 µM; stronger effect = higher value
The panel holds about 79,000 compounds, 15% with a hit somewhere; the sample as a whole holds those more often.
Outcome label depends on growth inhibition relative to 20%: at/above gives yes, below gives no.

>  <compound>
CCCCCCCCCC(C)(O)C(N)=O (stereo not drawn)

>  <category label>
no

$$$$
>  <compound>
Nc1c(C(=O)Nc2cccc3c2C(=O)c2ccccc2C3=O)ccc2c1C(=O)c1ccccc1C2=O

>  <category label>
yes

$$$$
>  <compound>
O=C(CC(=O)n1nc(-c2ccccc2)c(N=Nc2ccc([N+](=O)[O-])cc2)c1-c1ccccc1)Nc1ccc(Cl)cc1

>  <category label>
yes

$$$$
>  <compound>
COc1ccc2c(c1)C(=O)N1CCOC1C2C(=O)O (stereo not drawn)

>  <category label>
no

$$$$

Input line: Hi team, for Nc1nc(N)nc(Cc2ccccc2)n1 , is the recorded growth inhibition at or above 20%?
Output line: no

Input line: Hi team, for N=C(N)SCc1cccc2ccc3cccc(CSC(=N)N)c3c12 , is the recorded growth inhibition at or above 20%?
Output line: yes

Input line: Hi team, for O=C(O)c1ccc(C2C3C=CC(C3)C2[N+](=O)[O-])cc1 (stereo not drawn) , is the recorded growth inhibition at or above 20%?
Output line: no

---

Entries and their growth inhibition values follow.
experiment: NCI Yeast Anticancer Drug Screen. Data for the mec2-1 strain (AID 157); conditions: S. cerevisiae mec2-1 strain, at 50.0 µM, stronger effect = higher value
The panel holds about 79,000 compounds, 15% with a hit somewhere; the sample as a whole holds those more often. Calls of active or inactive are those of the source. Rule as the data show it: active = growth inhibition above about 70%; inactive = the rest.

>  <compound>
Cc1ccc(S(=O)(=O)OCC2C(c3ccccc3)CCC(c3ccccc3)C2COS(=O)(=O)c2ccc(C)cc2)cc1 (stereo not given)

>  <growth inhibition>
-5.4% (inactive)

$$$$
>  <compound>
Nc1ccc(S(=O)(=O)Nc2ccc([N+](=O)[O-])cn2)cc1

>  <growth inhibition>
-43% (inactive)

$$$$
>  <compound>
COC(=O)/C(=N/NC(N)=O)C(C(=O)OC)C(=O)C(=O)Nc1ccc(Cl)cc1 (stereo not given)

>  <growth inhibition>
-21.8% (inactive)

$$$$

Per the record, CC(C)(C)c1cc(C(C)(C)C)c(P(C(O[Si](C)(C)C)=C(c2ccccc2)c2ccccc2)C(O[Si](C)(C)C)=C(c2ccccc2)c2ccccc2)c(C(C)(C)C)c1 has growth inhibition of -8.45% (inactive)

Per the record, O=C(O)c1ccc(OCC(=O)c2ccccc2)cc1 has growth inhibition of 16.9% (inactive)

---

assay: NCI Yeast Anticancer Drug Screen. Data for the mec2-1 strain (AID 157); settings: S. cerevisiae mec2-1 strain, at 50.0 µM, stronger effect = higher value
About 79,000 compounds went through this panel and 15% of them were active in at least one assay; those are over-represented in the sample as a whole. Active and inactive are the calls of the source. No stated cut-off is given here; in the data, active means growth inhibition above about 70%; inactive means the rest.
Entries and their growth inhibition values follow.

Some solved cases for reference:
>  <compound>
CCc1nc(N)nc(N)c1-c1ccc(OC)c([N+](=O)[O-])c1

>  <growth inhibition>
-14.7% (inactive)

$$$$
>  <compound>
Cc1cccc(C)c1NC(=O)CCC(=O)NC(N)=NC#N

>  <growth inhibition>
-23.8% (inactive)

$$$$
>  <compound>
N#CC(C(=O)CCc1nc2ccccc2[nH]1)c1nc2ccccc2s1 (stereo unspecified)

>  <growth inhibition>
-3.5% (inactive)

$$$$

Per the record, CC(C)c1cccc(C(C)C)c1NC(=O)OC1CCCCC1 has growth inhibition of -22.8% (inactive)

Per the record, CNC(=O)NCCc1c[nH]c2ccccc12 has growth inhibition of -19.9% (inactive)

Per the record, CSc1ccc(C(=O)C[n+]2cc3ccccc3cc2C)cc1 has growth inhibition of -2.5% (inactive)

---

Test: NCI Yeast Anticancer Drug Screen. Data for the mlh1 rad18 strain (AID 175)
Conditions: S. cerevisiae mlh1 rad18 strain growth inhibition; at 50.0 µM; stronger effect = higher value
Method: Growth inhibition of yeast strains with defined genetic alterations is measured as a screen for potential anti-cancer activity. Selected strains with alterations in DNA damage repair or cell cycle control were exposed to compounds and growth inhibition was measured relative to vehicle treated controls. The strain used in this assay is mlh1 rad18
Compounds without any hit were thinned out: in the full panel of roughly 79,000, 15% have a hit.
Entries and their growth inhibition values follow.
The reply should contain only the number, in %.

Per the record, CC#CCN(C(C)C)C(C)C has growth inhibition of -27.1

Per the record, Cc1c(-c2ccc3c(c2)COC3)sc(N)c1C#N has growth inhibition of -5.4

Per the record, COc1ccc(CC(NC(=O)OCc2ccccc2)C(=O)O)cc1 (stereo unspecified) has growth inhibition of 6.6

---

Assay: NCI Yeast Anticancer Drug Screen. Data for the cln2 rad14 strain (AID 165);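 also: 0% = growth equal to vehicle treated cultures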
Conditions: S. cerevisiae cln2 rad14 strain, at 50.0 µM, stronger effect = higher value
Procedure: Growth inhibition of yeast strains with defined genetic alterations is measured as a screen for potential anti-cancer activity. Selected strains with alterations in DNA damage repair or cell cycle control were exposed to compounds and growth inhibition was measured relative to vehicle treated controls. The strain used in this assay is cln2 rad14
About 79,000 compounds went through this panel and 15% of them were active in at least one assay; those are over-represented in the sample as a whole.
Entries and their growth inhibition values follow.
The reply should contain only the number, in %.

>  <compound>
CC(C)c1ccc(C(O)C2CC2)cc1 (centres undefined)

>  <measurement>
3.05

$$$$
>  <compound>
CCCCCOP(=O)(OCCCCC)C(c1ccccc1)c1ccccc1

>  <measurement>
-33.4

$$$$
>  <compound>
CC(C)C(N)C(=O)NO (centres undefined)

>  <measurement>
5.05

$$$$
>  <compound>
CN(C)C(=O)CCOc1ccccc1

>  <measurement>
-56.3

$$$$
>  <compound>
O=C(O)c1ccccc1N=N/C(=N\Nc1ccccc1C(=O)O)c1ccnc2ccccc12

>  <measurement>
11.2

$$$$

Per the record, CCOC(=O)/C=C/c1ccc(OCC)cc1 has growth inhibition of -17.2

Per the record, Cc1ccc(-n2cc(/C(N)=N/O)c3ccccc3c2=O)cc1 has growth inhibition of -28.6

Per the record, Cc1cc(C)nc(Sc2c([N+](=O)[O-])ncn2C)n1 has growth inhibition of 4.65

Per the record, COC(=O)[C@]12CCC(C)[C@H](C)[C@H]1C1=CCC3[C@@]4(C)CC[C@H](OC(C)=O)C(C)(C)C4CC[C@@]3(C)C1(C)C(O)C2 (some centres undefined) has growth inhibition of 8.5

Per the record, CCOC(=O)/C=C(/OCC)c1cccc(Cl)c1 has growth inhibition of 16.3

Per the record, C=C=CON1CCCCC1 has growth inhibition of -5

Per the record, O=C(O)/C=C/c1ccc(OCc2ccccc2)c(OCc2ccccc2)c1 has growth inhibition of -10.9
